These measurements were taken from PubChem BioAssay (NCATS).

Test system: HaCat
TEST_DETAILS: Cytotoxic Profiling of Annotated Libraries Using Quantitative High-Throughput Screening (AID 1296008); note: nearly all actives have a fitted effect of over 60% in size
TEST_PARAMETERS: Five cell lines viability, CellTiter-Glo ATP luminescence, 48-72 h
Records with an inconclusive call do not appear. Calls of active or inactive are those of the source. Calls come from the whole dose curve; as a rule, active = well fitted inhibition curve with a large enough effect; inconclusive = small, poorly fitted or top-dose-only effect; inactive = flat fitted curve, though single readings scatter. Where a SMILES comes first, the peptide text is derived from it. The star is where a group is joined. Cbz = O=C(OCc1ccccc1)*; CH2F = FC*
METRIC_NAME: outcome

INPUT: Lab note: need outcome with HaCat for entry CCC(C)/C=C(C)/C=C/C1=CC2=C(Cl)C(=O)C(C)(O)C(=O)C2(O)C(OC)O1 (stereo not drawn) , please look it up.
OUTPUT: inactive

INPUT: Lab note: need outcome with HaCat for entry COC(=O)CC[C@H](NC(=O)[C@H](CC(C)C)NC(=O)OCc1ccccc1)C(=O)N[C@@H](Cc1cnc[nH]1)C(=O)N[C@@H](CC(=O)OC)C(=O)CF (Cbz-LE(OMe)HD(OMe)-CH2F) , please look it up.
OUTPUT: inactive

INPUT: Lab note: need outcome with HaCat for entry O=C(C[C@@H]1C(C(=O)O)=CO[C@@H](O[C@@H]2O[C@H](CO)[C@@H](O)[C@H](O)[C@H]2O)/C1=C\CO)OCCc1ccc(O)c(O)c1 , please look it up.
OUTPUT: inactive

###

System: JEG-3
TEST_DETAILS: Primary qHTS to identify gynecologic anti-cancer compounds using libraries of approved drugs and bioactive compounds (AID 1345084); note: % is set by controls: 0 for no effect and ±100 for the full control effect; nearly all actives have a fitted effect of over 55% in size
TEST_PARAMETERS: Gynecologic cancer cell panel viability, ATPlite luminescence, 48 h; series mostly up to 57.5 µM
Inconclusive results are not listed. Active and inactive are the calls of the source. Calls come from the whole dose curve; as a rule, active = well fitted cell-killing curve with a large enough effect; inconclusive = small, poorly fitted or top-dose-only effect, or effect the other way; inactive = flat fitted curve, though single readings scatter.
METRIC_NAME: activity change, negative = cytotoxicity

Please review the following examples before continuing.
INPUT: I have this compound here, CC(=O)O[C@@H](C[C@@H]1C=C(C)C(=O)O1)[C@H](C)[C@H]1CCC2[C@@]3(C)CC[C@H](O[C@@H]4O[C@H](CO)[C@@H](O)[C@H](O)[C@H]4O[C@@H]4O[C@@H](C)[C@H](O)[C@@H](O)[C@H]4O)C(C)(C)C3CC[C@@]2(C)[C@@]12COC(=O)C2 (some centres not stated) , and I need its recorded activity change, negative = cytotoxicity.
OUTPUT: -9.52% [at 11.6 µM] (inactive)

INPUT: I have this compound here, CC(C)(O)C1CCC2(C)CCCC(C)(O)C2C1 (configuration not stated) , and I need its recorded activity change, negative = cytotoxicity.
OUTPUT: inactive

INPUT: I have this compound here, C[C@@H]1O[C@@H](OC2C(O[C@H]3[C@H](O[C@H]4CC[C@@]5(C)C(CC[C@]6(C)C5CC=C5C7CC(C)(C)CC(O)[C@]7(C)CC[C@]56C)C4(C)C)O[C@H](C(=O)O)[C@@H](O)[C@@H]3O)OC(CO)C(O)C2O)[C@H](O)[C@H](O)[C@H]1O (some centres not stated) , and I need its recorded activity change, negative = cytotoxicity.
OUTPUT: 7.17% [at 11.6 µM] (inactive)

INPUT: I have this compound here, COc1cc(Cc2cnc(N)nc2N)c(C(C)C)cc1OC , and I need its recorded activity change, negative = cytotoxicity.
OUTPUT: inactive

INPUT: I have this compound here, CC(NC(=O)[C@H](Cc1ccccc1)NC(=O)OCc1ccccc1)C(=O)CF (some centres not stated) , and I need its recorded activity change, negative = cytotoxicity.
OUTPUT: inactive

INPUT: I have this compound here, COc1cc(C(O)C2COC(c3ccc(OC4OC(CO)C(O)C(O)C4O)c(OC)c3)C2CO)ccc1O (configuration not stated) , and I need its recorded activity change, negative = cytotoxicity.
OUTPUT: inactive

Pending compound:
INPUT: I have this compound here, Cn1c2ccc(NC(=O)c3ccccc3)cc2c(=O)n2nc(C(=O)O)cc12 , and I need its recorded activity change, negative = cytotoxicity.
OUTPUT: inactive

###

Tested on: Tov112D
TEST_DETAILS: Primary qHTS to identify gynecologic anti-cancer compounds using libraries of approved drugs and bioactive compounds (AID 1345084); note: % is set by controls: 0 for no effect and ±100 for the full control effect; nearly all actives have a fitted effect of over 55% in size
TEST_PARAMETERS: Gynecologic cancer cell panel viability, ATPlite luminescence, 48 h; series mostly up to 57.5 µM
Inconclusive results are not listed. Activity calls are given as the source filed them. The call rests on the fitted dose curve; in most records, active means well fitted cell-killing curve with a large enough effect; inconclusive means small, poorly fitted or top-dose-only effect, or effect the other way; inactive means flat fitted curve, though single readings scatter.
METRIC_NAME: activity change, negative = cytotoxicity

Please review the following examples before continuing.
INPUT: I have this compound here, CN1CCN(c2nc(-c3ccc(C(=O)NC4(C(=O)NCC#N)CCCCC4)cc3)cs2)CC1 , and I need its recorded activity change, negative = cytotoxicity.
OUTPUT: inactive

INPUT: I have this compound here, Cc1ccc(C)c(S(=O)(=O)n2cnc3ccccc32)c1 , and I need its recorded activity change, negative = cytotoxicity.
OUTPUT: inactive

INPUT: I have this compound here, CC(C)CC[C@@H](O)[C@](C)(O)[C@H]1CC[C@@]2(O)C3=CC(=O)[C@@H]4C[C@@H](O)[C@@H](O)C[C@]4(C)[C@H]3CC[C@]12C , and I need its recorded activity change, negative = cytotoxicity.
OUTPUT: inactive

INPUT: I have this compound here, CC(C)(CC(=O)N1CCCC1)NCC(=O)N1C[C@@H](F)C[C@H]1C#N , and I need its recorded activity change, negative = cytotoxicity.
OUTPUT: inactive

INPUT: I have this compound here, COc1cc(O)c(C(=O)O)c(CCc2ccccc2)c1 , and I need its recorded activity change, negative = cytotoxicity.
OUTPUT: inactive

INPUT: I have this compound here, COc1cc(/C=C/C(=O)O[C@@H]2C[C@@](O)(C(=O)O)C[C@@H](O)[C@@H]2O)ccc1O , and I need its recorded activity change, negative = cytotoxicity.
OUTPUT: inactive

INPUT: I have this compound here, C[C@@H]1O[C@@H](O[C@H]2[C@H](OC(=O)[C@]34CCC(C)(C)C[C@H]3C3=CCC5[C@@]6(C)C[C@@H](O)[C@@H](O)[C@@](C)(CO)C6[C@H](O)C[C@@]5(C)[C@]3(C)CC4)OC[C@H](O)[C@@H]2O)[C@H](O)[C@H](O)[C@H]1O[C@@H]1OC[C@@H](O)[C@H](O[C@H]2O[C@H](C)[C@@H](O)[C@H](O)[C@@H]2O)[C@H]1O (some centres undefined) , and I need its recorded activity change, negative = cytotoxicity.
OUTPUT: 3.92% [at 11.6 µM] (inactive)

INPUT: I have this compound here, CO[C@@H]1[C@]2(O)C(=O)N3/C=C\C(C)(C)c4[nH]c5ccccc5c4/C=C\3C(=O)N2[C@]23[C@H](CO)C(C)(C)N2c2ccccc2[C@]13O , and I need its recorded activity change, negative = cytotoxicity.
OUTPUT: inactive

Further cases:
INPUT: I have this compound here, C=C1C(O)CCC2(C)CC3(OC)OC(=O)C(C)=C3CC12 (centres undefined) , and I need its recorded activity change, negative = cytotoxicity.
OUTPUT: inactive

INPUT: I have this compound here, C=C1[C@H](OC(C)=O)[C@H]2[C@@H](OC(=O)c3ccccc3)[C@@H](C)C[C@]2(O)[C@@H](OC(C)=O)[C@H](C)/C=C/C(C)(C)C(=O)[C@H](OC(C)=O)[C@H]1OC(C)=O , and I need its recorded activity change, negative = cytotoxicity.
OUTPUT: inactive

INPUT: I have this compound here, C/C=C1\[C@H](O[C@@H]2O[C@H](CO)[C@@H](O)[C@H](O)[C@H]2O)OC=C(C(=O)O)[C@H]1CC(=O)OCCc1ccc(O)cc1 , and I need its recorded activity change, negative = cytotoxicity.
OUTPUT: inactive

###

TEST_DETAILS: Primary fluorescence-based thiol-reactive (MSTI) qHTS assay for identification of artifact compounds. (AID 1845221); note: nearly all actives have a fitted effect of over 65% in size
TEST_PARAMETERS: MSTI thiol-reactivity probe, 1 h; series mostly up to 53.8 µM
From the text: PI: Alexander Tropsha Ph.D. UNC Eshelman School of Pharmacy University of North Carolina, Chapel Hill, North Carolina Hits from high-throughput screening (HTS) of chemical libraries are often false positives due to their interference with the assay detection technology. […] Using these curated datasets, we developed and validated several Quantitative Structure-Interference Relationship (QSIR) models to predict nuisance behavior. […]
Inconclusive results are not listed. Calls of active or inactive are those of the source. Calls come from the whole dose curve; as a rule, active = well fitted inhibition curve with a large enough effect; inconclusive = small, poorly fitted or top-dose-only effect; inactive = no such curve, though single readings can be large or run the other way.
Bench note: report the call from 1 (yes) (active), 0 (no) (inactive)

INPUT: # lookup: test call for C[C@@H]1CC[C@]2(C(=O)O)CC[C@]3(C)C(=CCC4[C@@]5(C)C[C@@H](O)[C@H](O)[C@@](C)(CO)C5CC[C@]43C)C2[C@H]1C (some centres undefined)
OUTPUT: 0 (no)

INPUT: # lookup: test call for COC(=O)Cn1nc(-c2cccc(OC)c2)c2ccccc21
OUTPUT: 0 (no)

INPUT: # lookup: test call for C=C1C(O)C(O)C2(CC3C(C)=CCC4C(C)(C(=O)O)CCCC34C)OC2C1O (centres undefined)
OUTPUT: 1 (yes)

INPUT: # lookup: test call for COC(O)(CC(C)C)C1Oc2cc(C)[nH]c(=O)c2O1 (centres undefined)
OUTPUT: 0 (no)

INPUT: # lookup: test call for C/C=C/C=C/C(=O)OC1CC/C=C/C(O)C(O)C(CCC)OC1=O (centres undefined)
OUTPUT: 0 (no)

INPUT: # lookup: test call for CC(C)[C@@H](C(=O)O)N1Cc2c(cc(O)c3c2O[C@]2(C3)[C@H](C)CCC3C(C)(C)[C@H](O)[C@H](O)C[C@@]32C)C1=O (some centres undefined)
OUTPUT: 0 (no)

INPUT: # lookup: test call for CN1CCN(c2nc(-c3ccc(C(=O)NC4(C(=O)NCC#N)CCCCC4)cc3)cs2)CC1
OUTPUT: 0 (no)

INPUT: # lookup: test call for COCc1c(O)c(C(=O)O)c(C)c2c1OC(=O)c1c(C)cc(O)c(CO)c1O2
OUTPUT: 1 (yes)

INPUT: # lookup: test call for C=C1C(=O)O[C@@H]2C[C@]3(C)[C@@H](CCC(C)=O)[C@@H]3C[C@H]12
OUTPUT: 0 (no)
